assayTarget: human GPR119 (Homo sapiens, UniProt Q8TDV5)
Construct: host or cells: HEK293-CRE beta-lactamase cells
Sequence (Q8TDV5 1-335): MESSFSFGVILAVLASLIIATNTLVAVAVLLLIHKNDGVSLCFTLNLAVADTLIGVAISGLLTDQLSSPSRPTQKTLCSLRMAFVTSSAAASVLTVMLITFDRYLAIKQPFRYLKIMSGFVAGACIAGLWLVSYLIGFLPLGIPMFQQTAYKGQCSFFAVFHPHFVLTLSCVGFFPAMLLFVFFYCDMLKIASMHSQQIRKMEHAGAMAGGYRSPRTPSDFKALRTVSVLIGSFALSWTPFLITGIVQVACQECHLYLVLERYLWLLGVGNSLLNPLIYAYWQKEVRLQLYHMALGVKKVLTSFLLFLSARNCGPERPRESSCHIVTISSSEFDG
protocolText: cAMP functional assay (HTRF, hGPR119 HEK-CRE beta-lactamase cells)
Assay type: cell-based
experimentalSetup: percent of maximal activity relative to standard GPR119 agonist (WO2005121121) at 10 μM; one line per run; read-out: Intrinsic Activity* (%) (cAMP)
measure: Emax (%)

Consider the following illustrative entries.
Cc1c(O[C@H]2[C@@H]3COC[C@H]2CN(C(=O)OC(C)(C)C)C3)ncnc1N1Cc2cnn(C)c2C1 [Example 9]; 72
Cc1c(O[C@H]2CCN(C(=O)OC(C)C)C[C@H]2F)ncnc1N1Cc2cnn(C)c2C1 (racemic) [Example 13]; 36
Cc1c(O[C@H]2CCN(C(=O)OC3(C)CC3)C[C@H]2F)ncnc1N1Cc2cnn(C)c2C1 (racemic) [Example 7]; 80

I. Cc1c(OC2CCN(C(=O)OC3(C)CC3)CC2)ncnc1N1Cc2cnn(C)c2C1 [Example 5]
II. Cc1c(OC2CCN(C(=O)OC(C)C)CC2)ncnc1N1Cc2cnn(C)c2C1 [Example 2]
// which entry has the larger Emax value, I or II ? Respond with the label that goes with your answer.
I
(I: 82%, II: 45%)

----------
assayTarget: human GPR119 (Homo sapiens, UniProt Q8TDV5)
Construct: host or cells: HEK293-CRE beta-lactamase cells
protocolText: cAMP functional assay (HTRF, hGPR119 HEK-CRE beta-lactamase cells)
Type: cell-based
experimentalSetup: **the curve was extrapolated to 100% to calculate an EC50; read-out: Human cAMP Functional EC50 (nM), curve extrapolated to 100%
measure: EC50 (nM)

CC(C)OC(=O)N1CCC(Oc2ncnc(N3Cc4cnn(C)c4C3)c2C#N)CC1; 6250
CC(C)OC(=O)N1CCC(Oc2cc(N3Cc4cnn(C)c4C3)ncn2)CC1; 7500

----------
assayTarget: human GPR119 (Homo sapiens)
Construct: host or cells: HEK293-CRE beta-lactamase cells
protocolText: Beta-lactamase functional assay (hGPR119 HEK293-CRE beta-lactamase reporter)
Format: cell-based
experimentalSetup: hGPR119 HEK293-CRE beta-lactamase cells, 16 hours incubation; one line per run; read-out: Human B-lactamase Functional EC50
pEC50: −log10 of the molar value.
measure: pEC50

I. Cc1c(OC2CCN(C(=O)OC(C)C)CC2)ncnc1N1Cc2cnn(C)c2C1 [Example 2]
II. CC(C)OC(=O)N1CCC(Oc2cc(N3Cc4cnn(C)c4C3)ncn2)CC1 [Example 1]
III. CC(C)OC(=O)N1CCC(Oc2ncnc(N3Cc4cnn(C)c4C3)c2C#N)CC1 [Example 3]
Which order do these items fall in when sorted by pEC50 from largest to smallest? Show the ranking through the labels, in the order asked for.
I, III, II
